Molecular target: USP25 (USP25-His6, Boston Biochem E-546) (Homo sapiens, UniProt Q9UHP3)
Construct: His6; purchased Boston Biochem E-546
Sequence (Q9UHP3 whole entry): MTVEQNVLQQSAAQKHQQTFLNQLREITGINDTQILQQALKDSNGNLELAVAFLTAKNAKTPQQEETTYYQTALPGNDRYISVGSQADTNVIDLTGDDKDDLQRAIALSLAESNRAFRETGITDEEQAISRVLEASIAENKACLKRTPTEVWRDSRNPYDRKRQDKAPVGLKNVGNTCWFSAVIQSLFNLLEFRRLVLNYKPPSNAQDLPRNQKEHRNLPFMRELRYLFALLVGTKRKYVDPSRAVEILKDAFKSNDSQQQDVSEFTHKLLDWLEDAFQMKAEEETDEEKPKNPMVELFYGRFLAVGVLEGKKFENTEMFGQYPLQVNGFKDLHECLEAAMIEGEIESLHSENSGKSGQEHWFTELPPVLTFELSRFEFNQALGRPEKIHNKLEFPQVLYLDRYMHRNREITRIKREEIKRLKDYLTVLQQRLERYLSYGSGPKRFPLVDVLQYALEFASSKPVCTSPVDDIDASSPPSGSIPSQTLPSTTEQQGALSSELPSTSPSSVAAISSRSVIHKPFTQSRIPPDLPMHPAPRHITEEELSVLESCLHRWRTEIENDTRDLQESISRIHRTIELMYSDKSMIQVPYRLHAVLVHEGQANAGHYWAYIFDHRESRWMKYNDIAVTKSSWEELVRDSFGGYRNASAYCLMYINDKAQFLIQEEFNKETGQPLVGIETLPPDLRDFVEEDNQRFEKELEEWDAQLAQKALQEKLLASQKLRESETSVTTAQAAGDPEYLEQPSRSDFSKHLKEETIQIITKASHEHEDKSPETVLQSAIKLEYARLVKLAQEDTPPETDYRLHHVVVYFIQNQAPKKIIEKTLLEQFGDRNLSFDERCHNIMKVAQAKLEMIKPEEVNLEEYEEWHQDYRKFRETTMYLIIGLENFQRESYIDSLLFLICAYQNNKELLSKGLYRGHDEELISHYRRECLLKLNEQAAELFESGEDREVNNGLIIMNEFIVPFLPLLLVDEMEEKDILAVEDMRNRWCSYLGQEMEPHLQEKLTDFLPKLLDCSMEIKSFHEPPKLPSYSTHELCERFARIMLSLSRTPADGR
Assay: Ubiquitin-Rhodamine 110 Assay for USP25 Activity, Example A-2
Assay type: biochemical
Conditions: Ubiquitin-Rhodamine 110 assay, Example A-2; read-out: USP25 A-2 IC50 range
property name: IC50

{"compound": "CO[C@H]1CN(c2ccc3c(c2)OC[C@H](NC(=O)c2sc4nc(C)ccc4c2N)C3)CC[C@@H]1N [Example 128]", "observed": "0.2 to 2 µM"}
{"compound": "CO[C@H]1[C@@H](C)N(c2ccc3c(c2)OC[C@H](NC(=O)c2sc4nc(C)ccc4c2N)C3)C[C@@H]1N [Example 336]", "observed": "0.2 to 2 µM"}
{"compound": "Cc1ccc2c(N)c(C(=O)N[C@H]3COc4cc(N5CCC(C(=O)O)CC5)ccc4C3)sc2n1 [Example 6-1]", "observed": "> 2 µM"}
{"compound": "Cc1ccc2c(N)c(C(=O)N[C@H]3COc4cc(N5C[C@@H](N)CC[C@H]5C(F)(F)F)ccc4C3)sc2n1 [Example 245]", "observed": "0.05 to 0.2 µM"}

These measurements were taken from patent US11524966B1.
